Origin of measurements: PubChem BioAssay (NCI)

- System: SK-OV-3 ovarian
- protocol.details: NCI tumour cell line growth inhibition, 384-well format
assay.endpoint: TGI

{"compound": "Cn1cc(S(=O)(=O)N2CCC3=Cc4c(cnn4-c4ccc(F)cc4)C[C@]3(C(=O)c3cc(C(F)(F)F)ccn3)C2)cn1", "result": "> 100 µM"}
{"compound": "Cc1noc2c1-c1ccccc1C(c1ccc(Cl)cc1)=N[C@H]2CC(N)=O", "result": "38.8 µM"}
{"compound": "Cc1sc2c(c1C)C(c1ccc(Cl)cc1)=N[C@@H](CC(=O)Nc1ccc(OCCOCCOCCOCCNc3cccc4c3C(=O)N(C3CCC(=O)NC3=O)C4=O)cc1)c1nnc(C)n1-2 (some centres undefined)", "result": "0.228 µM"}
{"compound": "O=C(N[C@@H](Cc1coc2ccccc12)B(O)O)[C@@H]1C[C@H]2CC[C@@H]1O2", "result": "55.7 µM"}

###

- Tested on: SF-268 CNS
- protocol.details: NCI tumour cell line growth inhibition, 384-well format

{"structure.notation": "Cn1cc(S(=O)(=O)N2CCC3=Cc4c(cnn4-c4ccc(F)cc4)C[C@]3(C(=O)c3cc(C(F)(F)F)ccn3)C2)cn1", "bound.type": ">", "TGI / µM": 100}
{"structure.notation": "Cc1noc2c1-c1ccccc1C(c1ccc(Cl)cc1)=N[C@H]2CC(N)=O", "bound.type": "=", "TGI / µM": 67.7}
{"structure.notation": "O=C(N[C@@H](Cc1coc2ccccc12)B(O)O)[C@@H]1C[C@H]2CC[C@@H]1O2", "bound.type": "=", "TGI / µM": 7.43}
{"structure.notation": "CNCCn1c(=O)c2cc(OC)c(OC)cc2c2cnc3cc4c(cc3c21)OCO4", "bound.type": "=", "TGI / µM": 0.0172}

###

- Test system: U251 glioblastoma

{"compound": "Cn1cc(S(=O)(=O)N2CCC3=Cc4c(cnn4-c4ccc(F)cc4)C[C@]3(C(=O)c3cc(C(F)(F)F)ccn3)C2)cn1", "GI50": "15.4 µM"}
{"compound": "Cc1noc2c1-c1ccccc1C(c1ccc(Cl)cc1)=N[C@H]2CC(N)=O", "GI50": "10.2 µM"}
{"compound": "Cc1sc2c(c1C)C(c1ccc(Cl)cc1)=N[C@@H](CC(=O)Nc1ccc(OCCOCCOCCOCCNc3cccc4c3C(=O)N(C3CCC(=O)NC3=O)C4=O)cc1)c1nnc(C)n1-2 (some centres undefined)", "GI50": "0.186 µM"}
{"compound": "O=C(N[C@@H](Cc1coc2ccccc12)B(O)O)[C@@H]1C[C@H]2CC[C@@H]1O2", "GI50": "14.8 µM"}

###

- System: MALME-3M melanoma
- protocol.details: NCI tumour cell line growth inhibition, 384-well format
Each item that follows carries a reported GI50.

{"compound": "CNCCn1c(=O)c2cc(OC)c(OC)cc2c2cnc3cc4c(cc3c21)OCO4", "GI50": "0.0255 µM"}
{"compound": "Cn1cc(S(=O)(=O)N2CCC3=Cc4c(cnn4-c4ccc(F)cc4)C[C@]3(C(=O)c3cc(C(F)(F)F)ccn3)C2)cn1", "GI50": "19.2 µM"}
{"compound": "Cc1sc2c(c1C)C(c1ccc(Cl)cc1)=N[C@@H](CC(=O)Nc1ccc(OCCOCCOCCOCCNc3cccc4c3C(=O)N(C3CCC(=O)NC3=O)C4=O)cc1)c1nnc(C)n1-2 (some centres undefined)", "GI50": "0.133 µM"}
{"compound": "Cc1noc2c1-c1ccccc1C(c1ccc(Cl)cc1)=N[C@H]2CC(N)=O", "GI50": "16.4 µM"}
